biological target: cAMP-dependent protein kinase catalytic subunit alpha (Homo sapiens); conditions: at 0.1 µM;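 further: reported value is the mean percent inhibition of PKA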
ASSAY READOUT: inhibition
Write down the value, and be sure its unit follows.

[[record]]
structure_string = "NS(=O)(=O)c1cccc(Nc2cc(-c3ccc(F)cc3)n[nH]2)c1"
assayed_target = "cAMP-dependent protein kinase catalytic subunit alpha (Homo sapiens)"
assay_readout = "inhibition"
value_observed = "5.01%"

[[record]]
structure_string = "COc1cc2ncnc(Nc3ccc4c(cnn4Cc4ccccc4)c3)c2cc1OC"
assayed_target = "cAMP-dependent protein kinase catalytic subunit alpha (Homo sapiens)"
assay_readout = "inhibition"
value_observed = "0.6%"


For this molecule ( COc1cc2ncnc(Nc3ccc(C)c(O)c3)c2cc1OC ), measured inhibition is 2.17%

For this molecule ( NS(=O)(=O)c1ccc(-c2cc3ccncc3cc2OCc2ccccc2)cc1 ), measured inhibition is 1.4%

For this molecule ( Cc1ccc2c(c1)/C(=N/Nc1ccc(S(N)(=O)=O)cc1)C(=O)N2 ), measured inhibition is 0.27%
